TARGET OR SYSTEM: GCase (GBA) in human fibroblast cell line GM10915 harboring the L444P GBA mutation (Homo sapiens, UniProt P04062, L483P)
Construct: Human fibroblast cell line GM10915 harboring the L444P GBA mutation; host or cells: GM10915 human fibroblasts
Sequence (P04062 40-536 L483P): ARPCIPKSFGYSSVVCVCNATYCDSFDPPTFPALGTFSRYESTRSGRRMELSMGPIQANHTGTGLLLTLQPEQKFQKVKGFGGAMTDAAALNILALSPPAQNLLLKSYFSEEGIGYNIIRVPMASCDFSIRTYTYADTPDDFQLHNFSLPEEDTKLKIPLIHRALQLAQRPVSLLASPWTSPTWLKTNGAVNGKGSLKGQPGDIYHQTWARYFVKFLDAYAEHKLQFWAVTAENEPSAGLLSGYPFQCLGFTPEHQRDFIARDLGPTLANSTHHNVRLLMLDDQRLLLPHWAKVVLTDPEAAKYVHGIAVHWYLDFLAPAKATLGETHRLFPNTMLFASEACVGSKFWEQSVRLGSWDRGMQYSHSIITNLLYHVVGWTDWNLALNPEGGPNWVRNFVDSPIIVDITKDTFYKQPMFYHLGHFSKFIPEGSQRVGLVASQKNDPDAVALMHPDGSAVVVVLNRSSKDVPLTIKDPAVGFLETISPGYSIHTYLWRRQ
ASSAY DETAILS: GCase activity assay (4-MUG substrate, normalised to crystal violet staining) in L444P GBA fibroblasts
Type: cell-based
STUDY CONDITIONS: maximum percent GCase activity relative to untreated cells in the dose range tested, 5 days exposure
VALUE KIND: Emax (%)

[a] COc1ccc(C2(C3=NOCC(CN4CCCCC4)O3)CCNCC2)nc1 (stereo not drawn) [compound 852]
[b] CC(=O)N1CCC(C2=NOCC(CN3CCCCC3)O2)CC1 (stereo not drawn) [compound 683]
[c] C1CCN(CC2CON=C(C3(C4CCNCC4)CC3)O2)CC1 (racemic) [compound 521]
**Q:** Lab note: order the above by reported Emax, lowest first, highest last. A complete answer lists every label in the requested sequence.
**A:** b, a, c

[a] COC1CN(C)CC1C1=NOCC(CN2CCCCC2)O1 (racemic) [compound 821]
[b] COC1CC(C2=NOCC(CN3CCCCC3)O2)CN(C)C1 (stereo not drawn) [compound 689]
**Q:** For this pair, a and b , which shows a numerically higher Emax? Could you answer with the label of the item you picked?
**A:** a
(a: 213%, b: 137%)

[a] CN1CCCC(C(C)(C)C2=NOCC(CN3CCCCC3)O2)C1 (racemic) [compound 595]
[b] Cn1cnc(CC2(C3=NOCC(CN4CCCCC4)O3)CCNCC2)c1 (stereo not drawn) [compound 582]
[c] COCCC1(C2=NOCC(CN3CCCCC3)O2)CCNCC1 (racemic) [compound 726]
**Q:** Rank order required: Emax, descending. A complete answer lists every label in the requested sequence.
**A:** c, a, b

====

TARGET OR SYSTEM: GCase (GBA) in human fibroblast cell line GM10915 harboring the L444P GBA mutation (Homo sapiens, UniProt P04062, L483P)
Construct: Human fibroblast cell line GM10915 harboring the L444P GBA mutation; host or cells: GM10915 human fibroblasts
ASSAY DETAILS: GCase activity assay (4-MUG substrate, normalised to crystal violet staining) in L444P GBA fibroblasts
Assay type: cell-based
STUDY CONDITIONS: maximum percent GCase activity relative to untreated cells in the dose range tested, 5 days exposure
VALUE KIND: Emax (%)

molecule="CC(C)N1CCC(C2=NOCC(CN3CCCCC3)O2)CC1 (racemic)" assay_result=242
molecule="CN1CCC(C2=NOCC(CN3CCCCC3)O2)C1 (stereo not drawn) [compound 629]" assay_result=247
molecule="CC(C)(C1=NOCC(CN2CCCCC2)O1)C1CCNC1 (racemic)" assay_result=230
molecule="CC1NCCC1C1=NOCC(CN2CCCCC2)O1 (racemic)" assay_result=251
molecule=C[C@@H]1ON=C(C2(C)CCNCC2)O[C@H]1CN1CCCCC1 assay_result=233

[1] CC(C)C1ON=C(C2CCNC2)OC1CN(C)C (racemic)
[2] CN(C)C(=O)N1CCC(C2=NOCC(CN3CCCCC3)O2)C1 (stereo not drawn)
[3] CN1CCN(CCC2=NOCC(CN3CCCCC3)O2)CC1 (racemic)
**Q:** Reorder the items by Emax, least to greatest. A complete answer lists every label in the requested sequence.
**A:** 2, 1, 3
(2: 102%, 1: 212%, 3: 312%)
